Exercise: for every item that follows, state its recorded pKd.
Target: T1, human CCR7 (human, UniProt P32248 25-378)
T1 construct: The assay field tells which; also called hCCR7; NIH3T3.hCCR7
T1 sequence: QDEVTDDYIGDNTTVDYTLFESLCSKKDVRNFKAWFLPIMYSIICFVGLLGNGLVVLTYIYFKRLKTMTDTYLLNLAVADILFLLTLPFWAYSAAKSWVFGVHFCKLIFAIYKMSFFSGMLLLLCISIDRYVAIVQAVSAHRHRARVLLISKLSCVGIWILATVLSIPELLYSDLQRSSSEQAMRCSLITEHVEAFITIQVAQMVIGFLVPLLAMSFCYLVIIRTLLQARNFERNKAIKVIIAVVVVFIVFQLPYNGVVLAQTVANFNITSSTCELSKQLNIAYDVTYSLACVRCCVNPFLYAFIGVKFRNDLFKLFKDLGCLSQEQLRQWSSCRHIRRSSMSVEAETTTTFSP
Test: ELISA on CCR7-expressing VLPs, pH 7.4 buffer
Give bare numbers, as −log10 of the molar value.

Take each entry in turn and give its pKd.
1. 121G12 humanized CysMab (Fc Wild Type) (antibody, V domains shown, Human IgG1 kappa with CysMab cysteines (E152C, S375C); also called Humanized CysMab antibody 121G12; 121G12.CysMab.DAR4 unconjugated (assigned)) VH: EVQLVESGGGLVKPGGSLRLSCAASGFTFSTYAMSWVRQAPGKGLEWVATISDAGSYSYYPDNVKGRFTISRDNAKNSLYLQMNSLRAEDTAVYYCARRGSRYEEYYVMDYWGQGTTVTVSS VL: EIVLTQSPATLSVSPGERVTLSCRASQSISNNLHWYQQKPGQAPRLLIKYASQSISGIPARFSGSGSGTDFTLTISSVEPEDFGVYFCQQSSSWLTFGQGTKLEIK
2. 674J13 humanized CysMab (Fc Wild Type) (antibody, V domains shown, Human IgG1 kappa with CysMab cysteines; also called Humanized CysMab antibody 674J13) VH: DVQLQESGPGLVKPSQTLSLTCTVSGYSITSGYSWHWIRQHPGKGLEWMAHIHSSGSTNYNPSLKSRITISRDTSKNQFSLKLSSVTAADTAVYYCARGGVQAFAYWGQGTLVTVSS VL: EIVLTQSPATLSASPGERVTMSCSASSSVIYMHWYQQKPGQAPRRWIYDTSKLASGVPARFSGSGSGTDYTLTISSMEPEDAAVYYCQQWSSNPLTFGQGTKLEIK

Reply:
[9.85, 10.79]

Take each entry in turn and give its pKd.
1. 506E15 humanized CysMab (Fc Wild Type) (antibody, V domains shown, Human IgG1 kappa with CysMab cysteines; also called Humanized CysMab antibody 506E15) VH: EVQLVESGGGLVKPGGSLRLSCAASGFTFSSYAMSWIRQAPGKGLEWVATISSGGSFTYYPDSVKGRFTISRDNAKNSLYLQMNSLRAEDTAVYYCARRASTVVGTDFDVWGQGTTVTVSS VL: DIQMTQSPSSLSASVGDRVTLTCRASQDIGSSLNWLQQKPGKAIKRLIYATSSLDSGVPSRFSGSRSGTDYTLTISSLQPEDFVVYYCLQYASSPPTFGGGTKLEIK
2. 684E12 humanized CysMab (Fc Wild Type) (antibody, V domains shown, Human IgG1 kappa with CysMab cysteines; also called Humanized CysMab antibody 684E12) VH: EVQLVESGGGLVKPGGSLRLSCAASGFTFSNFAMSWVRQAPGKGLEWVSTISTGGTYTYYPDSVKGRFTISRDNAKNSLYLQMNSLRAEDTAVYYCARRGYSGVDKWGQGTTVTVSS VL: DVVMTQSPLSLPVTLGQPASISCKSGQSLLDSTGKTYLNWFLQRPGQSPRRLIYLVSKLDSGVPDRFSGSGSGTDFTLKISRVEAEDVGVYYCWQGTHFPQTFGGGTKLEIK

Reply:
1: 10.24; 2: 10.43
